target.desc: Aurora A kinase (Homo sapiens, UniProt O14965)
Sequence (O14965 whole entry): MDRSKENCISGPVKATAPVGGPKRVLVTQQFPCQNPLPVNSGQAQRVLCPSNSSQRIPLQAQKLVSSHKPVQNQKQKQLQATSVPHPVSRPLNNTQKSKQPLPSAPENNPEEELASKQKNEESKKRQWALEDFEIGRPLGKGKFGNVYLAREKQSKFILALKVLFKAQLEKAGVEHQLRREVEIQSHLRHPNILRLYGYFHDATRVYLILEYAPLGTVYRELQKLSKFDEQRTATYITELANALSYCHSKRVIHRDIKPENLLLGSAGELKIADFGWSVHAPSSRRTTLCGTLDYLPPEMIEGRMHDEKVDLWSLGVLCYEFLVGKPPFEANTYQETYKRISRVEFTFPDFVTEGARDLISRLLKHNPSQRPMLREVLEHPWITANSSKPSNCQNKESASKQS
experiment.notes: Aurora A kinase inhibition assay (HTRF kinase assay / Z′-LYTE Kinase Assay Kit ser/thr 01 peptide)
Type: biochemical
study.conditions: 32 μM compound; read-out: Aurora A Kinase Percent block at 32 μM

# compound, inhibition at 32 µM, %
measured = [
    ("O=C1Nc2ccc(NC(=O)c3ccc(Cl)cc3)cc2/C1=N\\Nc1ccncc1 [Compound 6m]", 80.2),
    ("O=C(Cc1ccc(Cl)cc1)Nc1ccc2c(c1)/C(=N\\Nc1ccc(C(F)(F)F)cc1)C(=O)N2 [Compound 6f]", 87.8),
    ("O=C(Cc1ccc(Cl)cc1)Nc1ccc2c(c1)/C(=N\\Nc1ccc(Cl)cc1Cl)C(=O)N2 [Compound 6e]", 10),
    ("Cc1ccc(N/N=C2/C(=O)Nc3ccc(NC(=O)c4ccc(Cl)cc4)cc32)cc1 [Compound 6j]", 13.2),
    ("O=C1Nc2ccc(NC(=O)c3ccc(Cl)cc3)cc2/C1=N\\Nc1ccc(Cl)cc1Cl [Compound 6k]", 13.4),
    ("CC(=O)Nc1ccc2c(c1)/C(=N\\Nc1ccncc1)C(=O)N2 [Compound 6c]", 58.1),
    ("CC(=O)Nc1ccc2c(c1)C1(OCC(C)(C)CO1)C(=O)N2 [Compound 4a]", 9.1),
    ("O=C(CCN1CCOCC1)Nc1ccc2c(c1)/C(=N\\Nc1ccc(C(F)(F)F)cc1)C(=O)N2 [Compound 6i]", 79.3),
    ("CC1(C)COC2(OC1)C(=O)Nc1ccc(NC(=O)CCN3CCOCC3)cc12 [Compound 4c]", 1.6),
]
